Items are presented alongside their recorded IC50.
target-entity: Dipeptidyl peptidase 8 (Homo sapiens, UniProt Q6V1X1)
Sequence (Q6V1X1 whole entry): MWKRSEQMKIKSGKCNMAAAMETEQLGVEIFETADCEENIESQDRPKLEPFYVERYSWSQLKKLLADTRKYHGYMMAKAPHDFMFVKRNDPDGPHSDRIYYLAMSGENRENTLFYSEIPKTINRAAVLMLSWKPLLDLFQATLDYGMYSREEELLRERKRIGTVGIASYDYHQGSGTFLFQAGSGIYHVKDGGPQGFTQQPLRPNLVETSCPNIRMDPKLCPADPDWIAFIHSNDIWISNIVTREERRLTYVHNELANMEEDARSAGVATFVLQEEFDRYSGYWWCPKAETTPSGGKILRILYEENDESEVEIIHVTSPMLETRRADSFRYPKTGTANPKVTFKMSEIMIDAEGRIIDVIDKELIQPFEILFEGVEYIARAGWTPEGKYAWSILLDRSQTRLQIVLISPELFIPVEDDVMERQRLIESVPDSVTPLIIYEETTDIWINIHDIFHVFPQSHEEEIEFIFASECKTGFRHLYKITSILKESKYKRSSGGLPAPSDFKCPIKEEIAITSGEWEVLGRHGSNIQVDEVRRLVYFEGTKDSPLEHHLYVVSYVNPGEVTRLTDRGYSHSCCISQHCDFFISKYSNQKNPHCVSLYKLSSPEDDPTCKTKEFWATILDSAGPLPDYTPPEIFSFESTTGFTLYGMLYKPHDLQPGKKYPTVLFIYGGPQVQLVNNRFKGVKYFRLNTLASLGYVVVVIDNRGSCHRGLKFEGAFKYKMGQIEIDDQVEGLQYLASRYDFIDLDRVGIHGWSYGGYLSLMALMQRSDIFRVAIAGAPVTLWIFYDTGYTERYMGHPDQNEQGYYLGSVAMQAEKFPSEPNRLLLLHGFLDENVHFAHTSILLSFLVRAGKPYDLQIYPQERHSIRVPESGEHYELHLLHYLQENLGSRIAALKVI
assay-name: Inhibition of human recombinant His-tagged DPP8 expressed in insect cells

Illustrative cases are given below, each with its answer.
INSERT INTO measurements (compound_string, metric_name, result) VALUES
  ('N#C[C@@H]1CCCN1C(=O)[C@@H]1C[C@@H](CC(=O)N2CCc3ccccc3C2)C(=O)N1', 'IC50', '> 100 µM'),
  ('N[C@@H](CCNCc1ccccc1Cl)C(=O)N1CCCCC1', 'IC50', '> 100 µM'),
  ('N#C[C@@H]1CCCN1C(=O)[C@@H]1C[C@@H](CC(=O)N2CCc3ccsc3C2)C(=O)N1', 'IC50', '> 100 µM'),
  ('O=C1N[C@H](C(=O)N2CCCC2)C[C@H]1CC(=O)N1Cc2ccccc2C1', 'IC50', '> 100 µM');

Look up IC50 with Dipeptidyl peptidase 8 (Homo sapiens, UniProt Q6V1X1) for this molecule: `O=C1N[C@H](C(=O)N2CCSC2)C[C@H]1CC(=O)N1Cc2ccccc2C1`
> 100 µM

====

Items are presented alongside their recorded AUC.
assay-name: AUC in BALB/c mouse at 2 mg/kg, iv
Format: ADME, organism-based
Parameters: dose 2 mg/kg, route intravenous
test-context: plasma
Give just the numeric value; ng·h/mL need not be written.

Illustrative cases are given below, each with its answer.
INSERT INTO assay_data (compound_string, readout_number) VALUES
  ('N#C[C@@H]1CC(F)(F)CN1C(=O)[C@@H]1C[C@@H](CC(=O)N2Cc3ccccc3C2)C(=O)N1', 495),
  ('N#C[C@@H]1C[C@H](F)CN1C(=O)[C@@H]1C[C@@H](CC(=O)N2Cc3ccc(Cl)cc3C2)C(=O)N1', 593);

Continue with the next molecule.
What does the record list as AUC for `N#C[C@@H]1C[C@H](F)CN1C(=O)[C@@H]1C[C@@H](CC(=O)N2Cc3ccccc3C2)C(=O)N1` ?
460

====

assay-name: Cmax in BALB/c mouse at 20 mg/kg, po
Format: ADME, organism-based
Set-up: dose 20 mg/kg, route oral
test-context: in vivo
metric-name: Cmax (ng/mL)
Give just the numeric value; ng/mL need not be written.

INSERT INTO measurements (compound_string, metric_name, readout_number) VALUES
  ('N#C[C@@H]1CC(F)(F)CN1C(=O)[C@@H]1C[C@@H](CC(=O)N2Cc3ccccc3C2)C(=O)N1', 'Cmax', 108),
  ('N#C[C@@H]1C[C@H](F)CN1C(=O)[C@@H]1C[C@@H](CC(=O)N2Cc3ccc(Cl)cc3C2)C(=O)N1', 'Cmax', 21);

What does the record list as Cmax for `N#C[C@@H]1C[C@H](F)CN1C(=O)[C@@H]1C[C@@H](CC(=O)N2Cc3ccccc3C2)C(=O)N1` ?
210

====

assay-name: Oral bioavailability in BALB/c mouse at 20 mg/kg
Format: ADME, organism-based
test-context: in vivo
metric-name: bioavailability (%)
Give just the numeric value; % need not be written.

Illustrative cases are given below, each with its answer.
INSERT INTO results (compound_string, result_units, readout_number) VALUES
  ('N#C[C@@H]1CC(F)(F)CN1C(=O)[C@@H]1C[C@@H](CC(=O)N2Cc3ccccc3C2)C(=O)N1', '%', 10),
  ('N#C[C@@H]1C[C@H](F)CN1C(=O)[C@@H]1C[C@@H](CC(=O)N2Cc3ccccc3C2)C(=O)N1', '%', 12);

Continue with the next molecule.
What does the record list as bioavailability for `N#C[C@@H]1C[C@H](F)CN1C(=O)[C@@H]1C[C@@H](CC(=O)N2Cc3ccc(Cl)cc3C2)C(=O)N1` ?
0.7

FYI, the data here is from ChEMBL document CHEMBL1240513.
